Assay: SAD study: single-dose nacubactam pharmacokinetics (plasma/urine, LC-MS/MS, noncompartmental)
Type: in vivo
Details: human, plasma and urine, iv, single i.v. doses, 6.86 ± 0.64 to 9.66 ± 1.66, read-out: mean CLR (renal clearance), range over the five dose levels
MEASURED QUANTITY: CL renal

Consider the molecule shown here: NCCONC(=O)[C@@H]1CC[C@@H]2CN1C(=O)N2OS(=O)(=O)O [Nacubactam] What is its recorded CL renal?
114 to 161 mL/min

###

Experiment: MAD study: nacubactam pharmacokinetics, multiple doses and single dose alone or with meropenem
Assay type: in vivo, human
Conditions: human, plasma, intravenous, 1000 mg, MAD part 1, 1,000 mg q8h for 7 days, day 7, n = 6, geometric mean (%CV); read-out: AUC0–8h
MEASURED QUANTITY: AUC(0-t)

Sample NCCONC(=O)[C@@H]1CC[C@@H]2CN1C(=O)N2OS(=O)(=O)O — what was its AUC(0-t)?
118 µg·h/mL

###

Assay: MAD study: nacubactam pharmacokinetics, multiple doses and single dose alone or with meropenem
Assay type: in vivo, human
Details: human, plasma, intravenous, 2000 mg; MAD part 1, 2,000 mg q8h for 7 days, day 7, n = 6, median (range)
MEASURED QUANTITY: Tmax at 7 days (h)
Respond with the bare value in h.

Query: Tmax at 7 days; subject: NCCONC(=O)[C@@H]1CC[C@@H]2CN1C(=O)N2OS(=O)(=O)O
1.33

###

Assay: SAD study: single-dose nacubactam pharmacokinetics (plasma/urine, LC-MS/MS, noncompartmental)
Type: in vivo
Details: human, plasma, iv, single i.v. doses, 1.76 ± 0.17 to 2.36 ± 0.46, read-out: mean apparent terminal elimination half-life (t1/2), range across doses
MEASURED QUANTITY: half-life

Consider the compound NCCONC(=O)[C@@H]1CC[C@@H]2CN1C(=O)N2OS(=O)(=O)O and give its measured half-life.
1.76 to 2.36 h

###

Assay: MAD study: nacubactam pharmacokinetics, multiple doses and single dose alone or with meropenem
Type: in vivo, human
Conditions: human, plasma, intravenous, 2000 mg, MAD part 3, single dose (day 1 or 2) nacubactam 2,000 mg alone, geometric mean (%CV)
MEASURED QUANTITY: half-life (h)
API: value field is a number in h; no unit string.

half-life for NCCONC(=O)[C@@H]1CC[C@@H]2CN1C(=O)N2OS(=O)(=O)O ?
2.63

###

Test: SAD study: single-dose nacubactam pharmacokinetics (plasma/urine, LC-MS/MS, noncompartmental)
Format: in vivo
Settings: human, plasma, iv, single i.v. dose 500 mg, n = 6, mean (SD), read-out: Vss
MEASURED QUANTITY: Vd (L)
Kindly provide the numeric value in L only, without the unit symbol.

Any idea what its Vd is? The compound is NCCONC(=O)[C@@H]1CC[C@@H]2CN1C(=O)N2OS(=O)(=O)O
19.6

###

Test: SAD study: single-dose nacubactam pharmacokinetics (plasma/urine, LC-MS/MS, noncompartmental)
Format: in vivo
Conditions: human, plasma, iv, 1000 mg, single i.v. dose 1,000 mg, n = 6, mean (SD)
MEASURED QUANTITY: Tmax (min)
Just the number in min, nothing appended.

Need Tmax, item NCCONC(=O)[C@@H]1CC[C@@H]2CN1C(=O)N2OS(=O)(=O)O [Nacubactam]
30

###

Assay: SAD study: single-dose nacubactam pharmacokinetics (plasma/urine, LC-MS/MS, noncompartmental)
Assay type: in vivo
Conditions: human, plasma, iv, single i.v. dose 50 mg, n = 6, mean (SD)
MEASURED QUANTITY: Cmax (ng/mL)
Entry rule: numbers only, all in ng/mL.

Field request: Cmax | item: NCCONC(=O)[C@@H]1CC[C@@H]2CN1C(=O)N2OS(=O)(=O)O [Nacubactam]
2690

###

Assay: SAD study: single-dose nacubactam pharmacokinetics (plasma/urine, LC-MS/MS, noncompartmental)
Type: in vivo
Settings: human, plasma, iv, single i.v. doses 50 to 2,000 mg, read-out: mean Vss, range across doses
MEASURED QUANTITY: Vd

Which Vd value is on record for NCCONC(=O)[C@@H]1CC[C@@H]2CN1C(=O)N2OS(=O)(=O)O ?
17 to 22.4 L

###

Assay: clinical
Details: human, in vivo
MEASURED QUANTITY: Tmax (h)
Kindly answer with a numeric value in h, unit omitted.

What value of measured Tmax is listed for C[C@@H](O)[C@H]1C(=O)N2C(C(=O)O)=C(S[C@@H]3CN[C@H](C(=O)N(C)C)C3)[C@H](C)[C@H]12 ?
1

###

Experiment: SAD study: single-dose nacubactam pharmacokinetics (plasma/urine, LC-MS/MS, noncompartmental)
Assay type: in vivo
Conditions: human, plasma, iv, single i.v. dose 150 mg, n = 6, mean (SD), read-out: CL (converted)
MEASURED QUANTITY: clearance (mL/min)
Return type: number; implicit unit mL/min.

GET /values?readout=clearance&item= NCCONC(=O)[C@@H]1CC[C@@H]2CN1C(=O)N2OS(=O)(=O)O
157

###

Test: MAD study: nacubactam pharmacokinetics, multiple doses and single dose alone or with meropenem
Assay type: in vivo, human
Conditions: human, plasma, intravenous, 2000 mg, MAD part 3, single dose (day 1 or 2) nacubactam 2,000 mg alone, geometric mean (%CV); read-out: AUC0–8h
MEASURED QUANTITY: AUC(0-t) (µg·h/mL)
Return type: number; implicit unit µg·h/mL.

Return reported AUC(0-t); argument: NCCONC(=O)[C@@H]1CC[C@@H]2CN1C(=O)N2OS(=O)(=O)O
201

###

Experiment: SAD study: single-dose nacubactam pharmacokinetics (plasma/urine, LC-MS/MS, noncompartmental)
Format: in vivo
Conditions: human, plasma, iv, 1000 mg, single i.v. dose 1,000 mg, n = 6, mean (SD)
MEASURED QUANTITY: AUC(0-inf)
Hi, when you answer, please include the unit after the number. Thanks!

Find the recorded AUC(0-inf) belonging to NCCONC(=O)[C@@H]1CC[C@@H]2CN1C(=O)N2OS(=O)(=O)O [Nacubactam] and report it.
143 µg·h/mL

###

Assay: MAD study: nacubactam pharmacokinetics, multiple doses and single dose alone or with meropenem
Format: in vivo, human
Details: human, plasma, intravenous, 2000 mg, MAD part 3, single dose (day 1 or 2) nacubactam 2,000 mg alone, geometric mean (%CV); read-out: CL (converted)
MEASURED QUANTITY: clearance (mL/min)
Expressed in mL/min, but write only the number.

Request the reported clearance associated with NCCONC(=O)[C@@H]1CC[C@@H]2CN1C(=O)N2OS(=O)(=O)O
148

###

Assay: SAD study: single-dose nacubactam pharmacokinetics (plasma/urine, LC-MS/MS, noncompartmental)
Type: in vivo
Conditions: human, plasma, iv, 1000 mg, single i.v. dose 1,000 mg, n = 6, mean (SD), read-out: Vss
MEASURED QUANTITY: Vd

If you can, please state the reported Vd value of NCCONC(=O)[C@@H]1CC[C@@H]2CN1C(=O)N2OS(=O)(=O)O .
17 L

###

Experiment: MAD study: nacubactam pharmacokinetics, multiple doses and single dose alone or with meropenem
Format: in vivo, human
Conditions: human, plasma, intravenous, 2000 mg, MAD part 1, 2,000 mg q8h for 7 days, day 7, n = 6, geometric mean (%CV); read-out: CL (converted)
MEASURED QUANTITY: clearance
Please state the value followed by its unit.

Query (compound): NCCONC(=O)[C@@H]1CC[C@@H]2CN1C(=O)N2OS(=O)(=O)O ; field requested: clearance
119 mL/min

###

Assay: SAD study: single-dose nacubactam pharmacokinetics (plasma/urine, LC-MS/MS, noncompartmental)
Type: in vivo
Settings: human, plasma, iv, single i.v. dose 500 mg, n = 6, mean (SD), read-out: CL (converted)
MEASURED QUANTITY: clearance (mL/min)
Hi! Could you send only the number? It should be in mL/min, unit omitted.

Look at this compound and give its reported clearance. NCCONC(=O)[C@@H]1CC[C@@H]2CN1C(=O)N2OS(=O)(=O)O
156

###

Assay: SAD study: single-dose nacubactam pharmacokinetics (plasma/urine, LC-MS/MS, noncompartmental)
Type: in vivo
Conditions: human, plasma, iv, single i.v. dose 150 mg, n = 6, mean (SD), read-out: Vss
MEASURED QUANTITY: Vd (L)
State just the number; it will be interpreted in L.

Could you share which Vd value was measured for NCCONC(=O)[C@@H]1CC[C@@H]2CN1C(=O)N2OS(=O)(=O)O [Nacubactam] ?
20.2

###

Experiment: MAD study: nacubactam pharmacokinetics, multiple doses and single dose alone or with meropenem
Type: in vivo, human
Settings: human, plasma, intravenous, 2000 mg
MEASURED QUANTITY: Tmax (h)
Kindly provide the numeric value in h only, without the unit symbol.

Bench note: what Tmax did NCCONC(=O)[C@@H]1CC[C@@H]2CN1C(=O)N2OS(=O)(=O)O show?
1
